These measurements were taken from PubChem BioAssay (NCI).

System: OVCAR-3 ovarian
Experiment: NCI tumour cell line growth inhibition, 48 h
Entries annotated with measured TGI

Below, 3 molecules whose answers are already recorded.
- MOLECULE: "c1ccc(-c2nc(-c3ccccc3)c(-c3ccccc3)[nH]2)cc1"
  TGI: "> 100 µM"
- MOLECULE: "O=C1Nc2cc([N+](=O)[O-])ccc2NC1/C(=N\\Nc1ccccc1)C(O)c1cccc([N+](=O)[O-])c1 (stereo not given)"
  TGI: "> 100 µM"
- MOLECULE: "C(=C\\c1ccccc1)/C=N/c1nc2cc3sc(/N=C/C=C/c4ccccc4)nc3cc2s1"
  TGI: "> 100 µM"

Req: Please look up its TGI: "NS(=O)(=O)c1cccc(N=Cc2c(O)[nH]c3ccccc23)c1"
Resp: > 25 µM

Req: Please look up its TGI: "Cc1ccc(-c2cc(C3=CC(=O)C=CC3=O)n(-c3ccc(S(N)(=O)=O)cc3)n2)cc1"
Resp: > 100 µM
